# method_description: Pharmacokinetic evaluation of QC-199 in mouse plasma and brain, IP or oral
# Format: in vivo
# condition_label: male, CD-1, mouse, in vivo; plasma, Oral 60 mg/kg; read-out: AUCall (0-12)
measurement_type: AUC (ng·h/mL)

[[record]]
compound = "Brc1ccc(CCCCn2ccnc2)cc1.Cl [QC-199]"
readout_units = "ng·h/mL"
value = 47000


---

# target_or_system: HO-2 (rat brain) (Rattus norvegicus, UniProt P23711)
# Construct: brain microsomes were used as a source of HO-2; from tissue; host or cells: brain microsomal fraction of adult male Sprague-Dawley rats
# Sequence (P23711 whole entry): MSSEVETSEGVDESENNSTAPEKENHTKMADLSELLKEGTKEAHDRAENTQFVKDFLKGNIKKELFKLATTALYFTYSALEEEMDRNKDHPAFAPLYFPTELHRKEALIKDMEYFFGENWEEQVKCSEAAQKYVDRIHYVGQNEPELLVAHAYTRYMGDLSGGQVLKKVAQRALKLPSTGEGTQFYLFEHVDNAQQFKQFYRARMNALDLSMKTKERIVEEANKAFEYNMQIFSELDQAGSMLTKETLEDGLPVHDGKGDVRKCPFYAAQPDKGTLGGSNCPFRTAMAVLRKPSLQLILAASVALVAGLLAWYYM
# method_description: HO enzymatic activity in rat brain microsomal fraction (CO formed from methemalbumin, gas chromatography)
# Assay type: biochemical
# condition_label: rat brain microsomes; average ± standard deviation of replicate experiments; read-out: IC50 HO-2 (rat brain)/μM
Structures can show the parent of a compound that is named as a salt.
measurement_type: IC50 (µM)

[[record]]
compound = "Clc1ccc(CC[C@@]2(Cn3ccnc3)OC[C@@H](CSc3ccccc3Br)O2)cc1 [hydrochloride]"
readout_units = "µM"
sign_qualifier = "="
value = 12.3

[[record]]
compound = "C[C@@H]1CO[C@@](CCc2ccc(Cl)cc2)(Cn2ccnc2)O1 [hydrochloride]"
readout_units = "µM"
sign_qualifier = "="
value = 305

[[record]]
compound = "OC[C@@H]1CO[C@@](CCc2ccc(Cl)cc2)(Cn2ccnc2)O1 [hydrochloride]"
readout_units = "µM"
sign_qualifier = ">"
value = 100

[[record]]
compound = "OC(CCc1ccccc1)Cn1cnnn1 (racemic) [hydrochloride]"
readout_units = "µM"
sign_qualifier = ">"
value = 100

[[record]]
compound = "OC(CCc1ccccc1)Cn1cnc(-c2ccccc2)c1 (racemic) [hydrochloride]"
readout_units = "µM"
sign_qualifier = ">"
value = 100

[[record]]
compound = "O=C(CCc1ccc(O)cc1)Cn1ccnc1 [hydrochloride]"
readout_units = "µM"
sign_qualifier = ">"
value = 100

[[record]]
compound = "Nc1ccccc1SC[C@H]1CO[C@@](CCc2ccc(Cl)cc2)(Cn2ccnc2)O1 [dihydrochloride]"
readout_units = "µM"
sign_qualifier = ">"
value = 100

[[record]]
compound = "COc1ccc(CCN2CCC(Nc3nc4cc(C)c(C)cc4n3Cc3ccc(F)cc3)CC2)cc1"
readout_units = "µM"
sign_qualifier = "="
value = 91

[[record]]
compound = "Clc1ccc(/C(Cn2ccnc2)=N/OCc2ccc(Br)cc2)cc1 [hydrochloride]"
readout_units = "µM"
sign_qualifier = "="
value = 51

[[record]]
compound = "O=C(CCc1ccc(OC(=O)c2ccccc2)cc1)Cn1ccnc1 [hydrochloride]"
readout_units = "µM"
sign_qualifier = ">"
value = 100

[[record]]
compound = "Fc1ccc(SC[C@@H]2CO[C@@](CCc3ccc(Cl)cc3)(Cn3ccnc3)O2)cc1 [hydrochloride]"
readout_units = "µM"
sign_qualifier = "="
value = 5

[[record]]
compound = "CSc1nnnn1CC(=O)CCc1ccccc1"
readout_units = "µM"
sign_qualifier = ">"
value = 100

[[record]]
compound = "FC[C@@H]1CO[C@@](CCc2ccc(Cl)cc2)(Cn2ccnc2)O1 [drawing 85, hydrochloride]"
readout_units = "µM"
sign_qualifier = "="
value = 4.4

[[record]]
compound = "Clc1ccc(CC[C@@]2(Cn3ccnc3)OC[C@@H](Cn3ccnc3)O2)cc1 [dihydrochloride]"
readout_units = "µM"
sign_qualifier = "="
value = 26

[[record]]
compound = "O=[N+]([O-])c1ccc(SC[C@@H]2CO[C@@](CCc3ccc(Cl)cc3)(Cn3ccnc3)O2)cc1 [hydrochloride]"
readout_units = "µM"
sign_qualifier = "="
value = 19

[[record]]
compound = "Cn1ccnc1 [1-methylimidazole hydrochloride, reference compound]"
readout_units = "µM"
sign_qualifier = ">"
value = 100

[[record]]
compound = "ClC[C@@H]1CO[C@@](CCc2ccc(Cl)cc2)(Cn2ccnc2)O1 [hydrochloride]"
readout_units = "µM"
sign_qualifier = "="
value = 122

